Origin of the recorded values: PubChem BioAssay (NCI)

- Tested on: A549 NSCLC
- Protocol Description: NCI tumour cell line growth inhibition, 48 h; in the data active = GI50 below about 0.43 µM; inactive = the rest
Entry note: the call must match one of class 1 for active, class 0 for inactive

Observe how each entry below is paired with its result.
- C[C@]12CC[C@@H]3c4cc(-c5ccc(F)cc5)c(O)cc4CC[C@H]3[C@@H]1CC[C@@H]2O: class 0
- C/C(=N\Nc1cc(C)c2ccccc2n1)c1ccccn1: class 1
- Cc1cc(O)cc2c1[C@]1(C)CCC3C(C)(C)CCC[C@]3(C)[C@H]1C2 (stereo partly drawn): class 0

## Input Per the records of this test, what outcome belongs to `CC(C)C[C@H](NC(=O)Cn1ccc(NCc2ccccc2)cc1=O)B(O)O` ?
## Output class 0

## Input Per the records of this test, what outcome belongs to `CCC(=O)Nc1ccccc1C#C/C=C\C#Cc1ccccc1SC` ?
## Output class 0

## Input Per the records of this test, what outcome belongs to `COc1ccc(-c2oc(=O)ccc2-c2cc(OC)c(OC)c(OC)c2)cc1O` ?
## Output class 0

## Input Per the records of this test, what outcome belongs to `COc1ccc(NC([Se])=NC23CC4CC(CC(C4)C2)C3)cc1` ?
## Output class 0

## Input Per the records of this test, what outcome belongs to `CS(=O)(=O)CCNCc1ccc(-c2ccc3ncnc(Nc4ccc(OCc5ccccc5)c(Br)c4)c3c2)o1` ?
## Output class 0
